Reference source for all entries: patent US20220107328A1

System: COL1A1 mRNA
Assay: qRT-PCR of COL1A1 mRNA in human primary hepatic stellate cells
Format: cell-based
Details: hepatic stellate cells, 0.01 μM
Response key: class 1 means Relative COL1A1 mRNA levels RQ >= 1; class 0 means Relative COL1A1 mRNA levels RQ < 1.

Some solved cases for reference:
COc1ccc(-c2ccc3c(N4CCOC[C@@H]4C)nc(N4CCOC[C@@H]4C)nc3n2)cc1CO [AZD-8055] = class 0
CO[C@H]1C[C@@H]2CC[C@@H](C)[C@@](O)(O2)C(=O)C(=O)N2CCCC[C@H]2C(=O)O[C@H]([C@H](C)C[C@@H]2CC[C@@H](OCCO)[C@H](OC)C2)CC(=O)[C@H](C)/C=C(\C)[C@@H](O)[C@@H](OC)C(=O)[C@H](C)C[C@H](C)/C=C/C=C/C=C/1C [Everolimus] = class 1
CC(C)n1nc(-c2ccc3oc(N)nc3c2)c2c(N)ncnc21 [INK-128] = class 1
CNC(=O)Nc1ccc(-c2nc(N3CC4CCC(C3)O4)c3cnn(C4CCC5(CC4)OCCO5)c3n2)cc1 [WYE-125132] = class 0

Query :: Kindly determine if Relative COL1A1 mRNA levels RQ recorded for CC(C)n1nc(-c2cc3cc(O)ccc3[nH]2)c2c(N)ncnc21 [PP242, Torkinib] is above or exactly 1.
Result :: class 1
